Quick list: TGI per entry.
system: SF-268 CNS; assay: NCI tumour cell line growth inhibition, 384-well format
The answer is to be given in µM; state only the numeric part.

{"columns": ["compound structure", "display unit", "TGI"],
 "data": [
  ["C[C@@H]1C[C@H](N)C[C@H](c2ccncc2NC(=O)c2ccc(F)c(-c3c(F)cccc3F)n2)C1", "µM", 15.9],
  ["Cn1ncc(Cl)c1-c1cc(C(=O)N[C@H](CN)Cc2cccc(F)c2)sc1Cl", "µM", 15.3]
]}

// query TGI value for entry Cc1c(CN2CCN(C(=O)[C@H](C)O)CC2)sc2c(N3CCOCC3)nc(-c3cnc(N)nc3)nc12 16.6

###

test system: SK-OV-3 ovarian; assay: NCI tumour cell line growth inhibition, 384-well format; in the data active means GI50 below about 0.43 µM; inactive means the rest
Hi! Could you answer with just one of these? y for active, n for inactive

{"columns": ["compound structure", "class label"],
 "data": [
  ["Cc1c(CN2CCN(C(=O)[C@H](C)O)CC2)sc2c(N3CCOCC3)nc(-c3cnc(N)nc3)nc12", "y"],
  ["CCC(CC)n1cnc2c(-c3cnc(N)cn3)nc(N3CC4CCC(C3)O4)nc21", "y"],
  ["COC[C@H](NC(=O)c1cnc(C)s1)C(=O)N[C@@H](COC)C(=O)N[C@@H](Cc1ccccc1)C(=O)[C@@]1(C)CO1", "y"]
]}

Could you now look at the following compound, please?
Check the results log: what was the call for COc1cc2nc(N3CCCN(C)CC3)nc(NC3CCN(Cc4ccccc4)CC3)c2cc1OC ? n

###

Quick list: TGI per entry.
system: NCI-H322M lung; experiment: NCI tumour cell line growth inhibition, 384-well format

Use the examples below as a reference point.
{"columns": ["compound structure", "target desc", "observable", "result"],
 "data": [
  ["Cc1c(CN2CCN(C(=O)[C@H](C)O)CC2)sc2c(N3CCOCC3)nc(-c3cnc(N)nc3)nc12", "NCI-H322M lung", "TGI", "6.6 µM"],
  ["Cn1ncc(Cl)c1-c1cc(C(=O)N[C@H](CN)Cc2cccc(F)c2)sc1Cl", "NCI-H322M lung", "TGI", "10.9 µM"],
  ["Cc1c(Cn2c(C)nc3c(C(=O)O)cc(N4CCOCC4)cc32)cccc1C(F)(F)F", "NCI-H322M lung", "TGI", "> 100 µM"]
]}

Here is another compound to look at.
// query TGI value for entry C[C@@H]1C[C@H](N)C[C@H](c2ccncc2NC(=O)c2ccc(F)c(-c3c(F)cccc3F)n2)C1 27.5 µM

###

test system: KM12 colon; test: NCI tumour cell line growth inhibition, 384-well format
observable: TGI

{"columns": ["compound structure", "TGI"],
 "data": [
  ["C[C@@H]1C[C@H](N)C[C@H](c2ccncc2NC(=O)c2ccc(F)c(-c3c(F)cccc3F)n2)C1", "22.3 µM"],
  ["COc1ccc(Br)cc1NC(=O)Nc1cccc2c1ccn2Cc1ccnc(N)c1", "5.81 µM"],
  ["COC[C@H](NC(=O)c1cnc(C)s1)C(=O)N[C@@H](COC)C(=O)N[C@@H](Cc1ccccc1)C(=O)[C@@]1(C)CO1", "< 0.01 µM"]
]}

// query TGI value for entry Cn1ncc(Cl)c1-c1cc(C(=O)N[C@H](CN)Cc2cccc(F)c2)sc1Cl 2.21 µM

###

Quick list: TGI per entry.
system: NCI/ADR-RES ovarian; assay: NCI tumour cell line growth inhibition, 384-well format
The answer is to be given in µM; state only the numeric part.

Use the examples below as a reference point.
{"columns": ["compound structure", "TGI / µM"],
 "data": [
  ["Cn1ncc(Cl)c1-c1cc(C(=O)N[C@H](CN)Cc2cccc(F)c2)sc1Cl", 19.9],
  ["COc1cc2nc(N3CCCN(C)CC3)nc(NC3CCN(Cc4ccccc4)CC3)c2cc1OC", 15.9]
]}

Here is another compound to look at.
// query TGI value for entry COc1ccc(Br)cc1NC(=O)Nc1cccc2c1ccn2Cc1ccnc(N)c1 23

###

tested on: NCI-H460 NSCLC
Hi! Could you answer with just one of these? active, inactive

{"columns": ["compound structure", "class label"],
 "data": [
  ["COc1cc2nc(N3CCCN(C)CC3)nc(NC3CCN(Cc4ccccc4)CC3)c2cc1OC", "inactive"],
  ["Cc1c(Cn2c(C)nc3c(C(=O)O)cc(N4CCOCC4)cc32)cccc1C(F)(F)F", "inactive"],
  ["Cc1c(CN2CCN(C(=O)[C@H](C)O)CC2)sc2c(N3CCOCC3)nc(-c3cnc(N)nc3)nc12", "active"]
]}

Could you now look at the following compound, please?
Check the results log: what was the call for COC[C@H](NC(=O)c1cnc(C)s1)C(=O)N[C@@H](COC)C(=O)N[C@@H](Cc1ccccc1)C(=O)[C@@]1(C)CO1 ? active

meta.source: PubChem BioAssay (NCI)
